# Test system: HeLa Kyoto
# assay-overview: solubility change mitosis vs G1/S (difference of NP-40 vs SDS log2 ratios) (log2 ratio difference); higher = more soluble in mitosis
Property: solubility change mitosis (log2); scope: individual sequences

seq-text: MADGDSGSERGGGGGPCGFQPASRGGGEQETQELASKRLDIQNKRFYLDVKQNAKGRFLKIAEVGAGGSKSRLTLSMAVAAEFRDSLGDFIEHYAQLGPSSPEQLAAGAEEGGGPRRALKSEFLVRENRKYYLDLKENQRGRFLRIRQTVNRGGGGFGAGPGPGGLQSGQTIALPAQGLIEFRDALAKLIDDYGGEDDELAGGPGGGAGGPGGGLYGELPEGTSITVDSKRFFFDVGCNKYGVFLRVSEVKPSYRNAITVPFKAWGKFGGAFCRYADEMKEIQERQRDKLYERRGGGSGGGEESEGEEVDED [PURB]
solubility change mitosis (log2): 0.0319
//
seq-text: MDDREDLVYQAKLAEQAERYDEMVESMKKVAGMDVELTVEERNLLSVAYKNVIGARRASWRIISSIEQKEENKGGEDKLKMIREYRQMVETELKLICCDILDVLDKHLIPAANTGESKVFYYKMKGDYHRYLAEFATGNDRKEAAENSLVAYKAASDIAMTELPPTHPIRLGLALNFSVFYYEILNSPDRACRLAKAAFDDAIAELDTLSEESYKDSTLIMQLLRDNLTLWTSDMQGDGEEQNKEALQDVEDENQ [YWHAE]
solubility change mitosis (log2): 0.181
//
seq-text: MAHYKAADSKREQFRRYLEKSGVLDTLTKVLVALYEEPEKPNSALDFLKHHLGAATPENPEIELLRLELAEMKEKYEAIVEENKKLKAKLAQYEPPQEEKRAE [MYCBP]
solubility change mitosis (log2): 0.968
//
seq-text: MWRGRAGALLRVWGFWPTGVPRRRPLSCDAASQAGSNYPRCWNCGGPWGPGREDRFFCPQCRALQAPDPTRDYFSLMDCNRSFRVDTAKLQHRYQQLQRLVHPDFFSQRSQTEKDFSEKHSTLVNDAYKTLLAPLSRGLYLLKLHGIEIPERTDYEMDRQFLIEIMEINEKLAEAESEAAMKEIESIVKAKQKEFTDNVSSAFEQDDFEEAKEILTKMRYFSNIEEKIKLKKIPL [HSCB]
solubility change mitosis (log2): 0.307

Continue with the sequence presented below.
Fill in solubility change mitosis (log2) for record MKLKLKNVFLAYFLVSIAGLLYALVQLGQPCDCLPPLRAAAEQLRQKDLRISQLQAELRRPPPAPAQPPEPEALPTIYVVTPTYARLVQKAELVRLSQTLSLVPRLHWLLVEDAEGPTPLVSGLLAASGLLFTHLVVLTPKAQRLREGEPGWVHPRGVEQRNKALDWLRGRGGAVGGEKDPPPPGTQGVVYFADDDNTYSRELFEEMRWTRGVSVWPVGLVGGLRFEGPQVQDGRVVGFHTAWEPSRPFPVDMAGFAVALPLLLDKPNAQFDSTAPRGHLESSLLSHLVDPKDLEPRAANCTRVLVWHTRTEKPKMKQEEQLQRQGRGSDPAIEV [B3GAT3]
-0.044

###

# Tested on: HeLa Kyoto
# assay-overview: melting temperature (median over replicates), in situ; higher = more thermally stable
# protocol-conditions: cell cycle stage: mitosis
assay-endpoint: melting temperature (°C)
Expressed in °C, but write only the number.

Fill in melting temperature for record MLAVHFDKPGGPENLYVKEVAKPSPGEGEVLLKVAASALNRADLMQRQGQYDPPPGASNILGLEASGHVAELGPGCQGHWKIGDTAMALLPGGGQAQYVTVPEGLLMPIPEGLTLTQAAAIPEAWLTAFQLLHLVGNVQAGDYVLIHAGLSGVGTAAIQLTRMAGAIPLVTAGSQKKLQMAEKLGAAAGFNYKKEDFSEATLKFTKGAGVNLILDCIGGSYWEKNVNCLALDGRWVLYGLMGGGDINGPLFSKLLFKRGSLITSLLRSRDNKYKQMLVNAFTEQILPHFSTEGPQRLLPVLDRIYPVTEIQEAHKYMEANKNIGKIVLELPQ [TP53I3]
57.3

Fill in melting temperature for record MLSAASRVVSRAAVHCALRSPPPEARALAMSRPPPPRVASVLGTMEMGRRMDAPASAAAVRAFLERGHTELDTAFMYSDGQSETILGGLGLGLGGGDCRVKIATKANPWDGKSLKPDSVRSQLETSLKRLQCPQVDLFYLHAPDHGTPVEETLHACQRLHQEGKFVELGLSNYASWEVAEICTLCKSNGWILPTVYQGMYNATTRQVETELFPCLRHFGLRFYAYNPLAGGLLTGKYKYEDKDGKQPVGRFFGNSWAETYRNRFWKEHHFEAIALVEKALQAAYGASAPSVTSAALRWMYHHSQLQGAHGDAVILGMSSLEQLEQNLAATEEGPLEPAVVDAFNQAWHLVAHECPNYFR [AKR7A2]
53.1

Fill in melting temperature for record MPVAGSELPRRPLPPAAQERDAEPRPPHGELQYLGQIQHILRCGVRKDDRTGTGTLSVFGMQARYSLRDEFPLLTTKRVFWKGVLEELLWFIKGSTNAKELSSKGVKIWDANGSRDFLDSLGFSTREEGDLGPVYGFQWRHFGAEYRDMESDYSGQGVDQLQRVIDTIKTNPDDRRIIMCAWNPRDLPLMALPPCHALCQFYVVNSELSCQLYQRSGDMGLGVPFNIASYALLTYMIAHITGLKPGDFIHTLGDAHIYLNHIEPLKIQLQREPRPFPKLRILRKVEKIDDFKAEDFQIEGYNPHPTIKMEMAV [TYMS]
49

Fill in melting temperature for record MASTSYDYCRVPMEDGDKRCKLLLGIGILVLLIIVILGVPLIIFTIKANSEACRDGLRAVMECRNVTHLLQQELTEAQKGFQDVEAQAATCNHTVMALMASLDAEKAQGQKKVEELEGEITTLNHKLQDASAEVERLRRENQVLSVRIADKKYYPSSQDSSSAAAPQLLIVLLGLSALLQ [BST2]
56.4

Fill in melting temperature for record MATRQRESSITSCCSTSSCDADDEGVRGTCEDASLCKRFAVSIGYWHDPYIQHFVRLSKERKAPEINRGYFARVHGVSQLIKAFLRKTECHCQIVNLGAGMDTTFWRLKDEDLLPSKYFEVDFPMIVTRKLHSIKCKPPLSSPILELHSEDTLQMDGHILDSKRYAVIGADLRDLSELEEKLKKCNMNTQLPTLLIAECVLVYMTPEQSANLLKWAANSFERAMFINYEQVNMGDRFGQIMIENLRRRQCDLAGVETCKSLESQKERLLSNGWETASAVDMMELYNRLPRAEVSRIESLEFLDEMELLEQLMRHYCLCWATKGGNELGLKEITY [LCMT1]
53.5

###

# Test system: HeLa Kyoto
# assay-overview: solubility in G1/S (NP-40 vs SDS abundance) (log2 ratio); higher = more soluble
# protocol-conditions: cell cycle stage: G1/S
Property: solubility in G1/S (log2); scope: individual sequences
Reply: number alone, nothing else.

The examples below pair each entry with its known result.
seq-text: MGASSSSALARLGLPARPWPRWLGVAALGLAAVALGTVAWRRAWPRRRRRLQQVGTVAKLWIYPVKSCKGVPVSEAECTAMGLRSGNLRDRFWLVIKEDGHMVTARQEPRLVLISIIYENNCLIFRAPDMDQLVLPSKQPSSNKLHNCRIFGLDIKGRDCGNEAAKWFTNFLKTEAYRLVQFETNMKGRTSRKLLPTLDQNFQVAYPDYCPLLIMTDASLVDLNTRMEKKMKMENFRPNIVVTGCDAFEEDTWDELLIGSVEVKKVMACPRCILTTVDPDTGVIDRKQPLDTLKSYRLCDPSERELYKLSPLFGIYYSVEKIGSLRVGDPVYRMV [MARC2]
solubility in G1/S (log2): -0.315
--
seq-text: MGDPERPEAAGLDQDERSSSDTNESEIKSNEEPLLRKSSRRFVIFPIQYPDIWKMYKQAQASFWTAEEVDLSKDLPHWNKLKADEKYFISHILAFFAASDGIVNENLVERFSQEVQVPEARCFYGFQILIENVHSEMYSLLIDTYIRDPKKREFLFNAIETMPYVKKKADWALRWIADRKSTFGERVVAFAAVEGVFFSGSFAAIFWLKKRGLMPGLTFSNELISRDEGLHCDFACLMFQYLVNKPSEERVREIIVDAVKIEQEFLTEALPVGLIGMNCILMKQYIEFVADRLLVELGFSKVFQAENPFDFMENISLEGKTNFFEKRVSEYQRFAVMAETTDNVFTLDADF [RRM2B]
solubility in G1/S (log2): 0.00384

Continue with the sequence presented below.
Fill in solubility in G1/S (log2) for record MRFMTLLFLTALAGALVCAYDPEAASAPGSGNPCHEASAAQKENAGEDPGLARQAPKPRKQRSSLLEKGLDGAKKAVGGLGKLGKDAVEDLESVGKGAVHDVKDVLDSVL [DCD]
-1.49

###

# System: HeLa Kyoto
# assay-overview: solubility in G1/S (NP-40 vs SDS abundance) (log2 ratio); higher = more soluble
# protocol-conditions: cell cycle stage: G1/S
// label = Yes if solubility in G1/S (log2) is not less than 0.2, otherwise No

seq-text: MARLWGALSLWPLWAAVPWGGAAAVGVRACSSTAAPDGVEGPALRRSYWRHLRRLVLGPPEPPFSHVCQVGDPVLRGVAAPVERAQLGGPELQRLTQRLVQVMRRRRCVGLSAPQLGVPRQVLALELPEALCRECPPRQRALRQMEPFPLRVFVNPSLRVLDSRLVTFPEGCESVAGFLACVPRFQAVQISGLDPNGEQVVWQASGWAARIIQHEMDHLQGCLFIDKMDSRTFTNVYWMKVND [PDF]
assigned-class: Yes

seq-text: MKLKLKNVFLAYFLVSIAGLLYALVQLGQPCDCLPPLRAAAEQLRQKDLRISQLQAELRRPPPAPAQPPEPEALPTIYVVTPTYARLVQKAELVRLSQTLSLVPRLHWLLVEDAEGPTPLVSGLLAASGLLFTHLVVLTPKAQRLREGEPGWVHPRGVEQRNKALDWLRGRGGAVGGEKDPPPPGTQGVVYFADDDNTYSRELFEEMRWTRGVSVWPVGLVGGLRFEGPQVQDGRVVGFHTAWEPSRPFPVDMAGFAVALPLLLDKPNAQFDSTAPRGHLESSLLSHLVDPKDLEPRAANCTRVLVWHTRTEKPKMKQEEQLQRQGRGSDPAIEV [B3GAT3]
assigned-class: No

Identify whether the reported solubility in G1/S (log2) of the following sequence is 0.2 or greater: MADEIAKAQVARPGGDTIFGKIIRKEIPAKIIFEDDRCLAFHDISPQAPTHFLVIPKKHISQISVAEDDDESLLGHLMIVGKKCAADLGLNKGYRMVVNEGSDGGQSVYHVHLHVLGGRQMHWPPG [HINT1]
Yes

Identify whether the reported solubility in G1/S (log2) of the following sequence is 0.2 or greater: MPEEGSGCSVRRRPYGCVLRAALVPLVAGLVICLVVCIQRFAQAQQQLPLESLGWDVAELQLNHTGPQQDPRLYWQGGPALGRSFLHGPELDKGQLRIHRDGIYMVHIQVTLAICSSTTASRHHPTTLAVGICSPASRSISLLRLSFHQGCTIASQRLTPLARGDTLCTNLTGTLLPSRNTDETFFGVQWVRP [CD70]
Yes
